- System: S. cerevisiae Burl-1 ts mutant growth, BacTiter-Glo, 38.5C 24 h
- test: restored growth of temperature-sensitive Burl-1 yeast – whole organism, S. cerevisiae, Burl-1 ts mutant, luminescence, counter-screen for SUMOylation pathway inhibitor project, dose response (AID 463199)
The source made the active and inactive calls.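 The calls were made as follows: active = AC50, the dose giving half-maximal effect, exceeds a fixed cutoff for a compound that rescues yeast growth under heat; inactive = the rest, inconclusive results apart.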
Select the matching outcome among True (active), False (inactive)

[ask] Test call for this compound, please: "CCN(C(=S)NCCOC)c1cccc2ccccc12"
[reply] False

[ask] Test call for this compound, please: "Cc1ccccc1Nc1cc(=O)oc2ccccc12"
[reply] False

[ask] Test call for this compound, please: CCOC(=O)C1(Cc2cccc(OC)c2)CCCN(S(=O)(=O)c2cccnc2)C1 (configuration not stated)
[reply] False

[ask] Test call for this compound, please: O=C(O)c1cccc(N2C(=O)C3C4C=CC(C4=C(c4ccccc4)c4ccccc4)C3C2=O)c1 (configuration not stated)
[reply] False

[ask] Test call for this compound, please: "CC(C)C(=O)Nc1ccc(NC(=S)NC(=O)c2ccccc2F)cc1"
[reply] False

[ask] Test call for this compound, please: "CCCCNC(=O)c1ccccc1NC(=O)C1=C(C)OCCS1"
[reply] True

[ask] Test call for this compound, please: "CC(=O)c1ccc(NC(=O)CSc2nnc(-c3ccco3)o2)cc1"
[reply] False

[ask] Test call for this compound, please: "Cn1c(CN2CCOCC2)nnc1SCC(N)=O"
[reply] False

[ask] Test call for this compound, please: "CC(C)(C)c1cc(NCCCn2ccnc2)n2ncc(-c3ccc(Cl)cc3)c2n1"
[reply] False

[ask] Test call for this compound, please: "COc1ccccc1NC(=O)c1nn(C)cc1Br"
[reply] False

[ask] Test call for this compound, please: O=C(COC(=O)C1CC(=O)N(Cc2ccccc2)C1)Nc1ccccc1F (configuration not stated)
[reply] False

[ask] Test call for this compound, please: "CCOC(=O)N1CCN(S(=O)(=O)c2ccc(C)c(C)c2)CC1"
[reply] False

[ask] Test call for this compound, please: "COC(=O)c1ccc(Cl)c(NC(=O)CN(c2ccc(OC)c(OC)c2)S(C)(=O)=O)c1"
[reply] False

[ask] Test call for this compound, please: "CCN1C(=O)N(c2ccc(Cl)cc2)C(C)=CC1(C)C"
[reply] False

[ask] Test call for this compound, please: "Cc1ccc(C)n1-c1ccc(N(C)C)cc1"
[reply] False

[ask] Test call for this compound, please: "COc1ccc(-c2oc3ccc(-c4cc(OC)c(OC)c(OC)c4)cc3c2C(=O)c2ccc(OC)nc2)cc1"
[reply] False

[ask] Test call for this compound, please: C/C(=N\NC(=S)Nc1ccccc1)C1Cc2ccccc2C(=O)O1 (configuration not stated)
[reply] False

[ask] Test call for this compound, please: O=C(NC1CCCC1)C(c1cccs1)N(C(=O)c1ccno1)c1ccccc1 (configuration not stated)
[reply] False

[ask] Test call for this compound, please: "COc1ccc(CCNC(=O)Cn2nnc(-c3ccc(N4CCOCC4)cc3)n2)cc1OC"
[reply] False

[ask] Test call for this compound, please: "C/C(=N\NC(=O)c1cccc(N/N=C(\C)c2ccc([N+](=O)[O-])cc2)c1)c1ccc([N+](=O)[O-])cc1"
[reply] False

[ask] Test call for this compound, please: "Cc1cccc(/C=N/NC(=O)Cc2cccs2)c1"
[reply] False

[ask] Test call for this compound, please: "Cc1ccc(NC(=O)Cn2sc3nc(C)cc(C)c3c2=O)c(Cl)c1"
[reply] False

Numbers sourced from PubChem BioAssay AID463199.
